Cited source for all entries: PubChem BioAssay (NCI)

- Test system: SNB-19 CNS
- Measurement description: NCI tumour cell line growth inhibition, 48 h

- Compound: "COC1=CC(=O)C2=C(C1=O)[C@H]1CC[C@]3(C)[C@@H](OC(C)=O)CC[C@H]3[C@@H]1CC2"
  Target under test: "SNB-19 CNS"
  TGI: "> 100 µM"
- Compound: "CN(C)CCCC1(c2ccc(F)cc2)OCc2cc(-c3cncc4ccccc34)ccc21 (centres undefined)"
  Target under test: "SNB-19 CNS"
  TGI: "7.4 µM"
- Compound: "C=CC(=O)Nc1cccc(Nc2nc(Nc3ccc(OCCOC(F)F)cc3)ncc2F)c1"
  Target under test: "SNB-19 CNS"
  TGI: "> 100 µM"
- Compound: "O=S1(=O)OCCOS(=O)(=O)C1Cc1nc2ccccc2[nH]1"
  Target under test: "SNB-19 CNS"
  TGI: "> 100 µM"
- Compound: "N#CCCC1(CCC#N)CCCCCCC(CCC#N)(CCC#N)C(O)C1O (centres undefined)"
  Target under test: "SNB-19 CNS"
  TGI: "> 100 µM"
- Compound: "Cc1ccc(-n2c3c(c4c(CN5CCOCC5)c(O)ccc42)CCc2ccccc2C3=O)cc1"
  Target under test: "SNB-19 CNS"
  TGI: "> 100 µM"
- Compound: "C[N+](C)=c1nc(N2CCOCC2)ss1"
  Target under test: "SNB-19 CNS"
  TGI: "> 100 µM"
- Compound: "COC(=O)c1cc2c3c(ccc2[nH]1)N(C(=O)c1cc2c4c(ccc2[nH]1)N(C(=O)c1cc2c5c(ccc2[nH]1)N(C(N)=O)CC5)CC4)CC3"
  Target under test: "SNB-19 CNS"
  TGI: "12.6 µM"
- Compound: "COc1cc([C@H]2c3[nH]c4ccccc4c3C[C@H]3COC(=O)N32)cc(OC)c1O"
  Target under test: "SNB-19 CNS"
  TGI: "> 100 µM"

----------
Below, each of the compounds is paired with its reported TGI value.
- Tested on: A549 NSCLC
- Measurement description: NCI tumour cell line growth inhibition, 48 h
Result type: TGI

- Compound: "CC(C)(C)OC(=O)N1CCc2c(n(C/C=C/c3ccccc3)[nH]c2=O)C1"
  Target under test: "A549 NSCLC"
  Result type: "TGI"
  Observed value: "> 100 µM"
- Compound: "CCOC(=O)C[C@@]12CCCNC1(C)CCc1ccccc12 (stereo partly drawn)"
  Target under test: "A549 NSCLC"
  Result type: "TGI"
  Observed value: "> 100 µM"
- Compound: "O=S1(=O)CCN(c2ccccc2CC(c2c[nH]c3ccccc23)c2c[nH]c3ccccc23)CC1"
  Target under test: "A549 NSCLC"
  Result type: "TGI"
  Observed value: "> 78.2 µM"
- Compound: "CCc1cccc(CC)c1/C=C/c1cncc(C(=O)NC)c1"
  Target under test: "A549 NSCLC"
  Result type: "TGI"
  Observed value: "> 25 µM"
- Compound: "CC(C)(C)c1c(C(C)(C)C)c(=O)c1=O"
  Target under test: "A549 NSCLC"
  Result type: "TGI"
  Observed value: "> 100 µM"
- Compound: "CC1(C)CC(=O)c2c(oc3cc(O)c(O)cc23)C1"
  Target under test: "A549 NSCLC"
  Result type: "TGI"
  Observed value: "> 100 µM"
- Compound: "CN(C)C(=O)SC1=C(c2c(Cl)cccc2Cl)C(=O)c2ccccc21"
  Target under test: "A549 NSCLC"
  Result type: "TGI"
  Observed value: "> 55.7 µM"
- Compound: "O=C1CSc2nnc(CCCCCCCCc3nnc4n3NC(=O)CS4)n2N1"
  Target under test: "A549 NSCLC"
  Result type: "TGI"
  Observed value: "> 100 µM"
- Compound: "O=c1[nH]c2cc(Cl)c(Cl)cc2n2cc3ccccc3c12"
  Target under test: "A549 NSCLC"
  Result type: "TGI"
  Observed value: "34.5 µM"
- Compound: "CCCCCCCCCC(=O)Oc1cccc2onc(C)c12"
  Target under test: "A549 NSCLC"
  Result type: "TGI"
  Observed value: "> 100 µM"
- Compound: "CC12CC(c3ccccc3O1)C(C(=O)Nc1cccc(F)c1)C(=O)N2 (stereo not drawn)"
  Target under test: "A549 NSCLC"
  Result type: "TGI"
  Observed value: "> 100 µM"
- Compound: "COc1ccc(C=Nc2ccc(-c3nc4ccccc4[nH]3)cc2)cc1OC"
  Target under test: "A549 NSCLC"
  Result type: "TGI"
  Observed value: "> 100 µM"
- Compound: "C/C(=C\\Cc1cc(O)ccc1O)CCc1c(C)cc(O)c(C=O)c1C"
  Target under test: "A549 NSCLC"
  Result type: "TGI"
  Observed value: "> 100 µM"
- Compound: "CNc1ccc(S(=O)Nc2ccccc2)cc1 (stereo not drawn)"
  Target under test: "A549 NSCLC"
  Result type: "TGI"
  Observed value: "> 100 µM"
- Compound: "c1ccc(OCCSCCCCCCCCCCSCCOc2ccccc2)cc1"
  Target under test: "A549 NSCLC"
  Result type: "TGI"
  Observed value: "> 100 µM"
- Compound: "CCOC(=O)C1CCCCc2sc(N)c(C#N)c21 (stereo not drawn)"
  Target under test: "A549 NSCLC"
  Result type: "TGI"
  Observed value: "> 100 µM"
- Compound: "COc1cc2cc(C(=O)N3CC(CCl)c4c3cc([N+](C)(C)Cc3ccc([N+](=O)[O-])n3C)c3ccccc43)[nH]c2c(OC)c1OC (stereo not drawn)"
  Target under test: "A549 NSCLC"
  Result type: "TGI"
  Observed value: "1.06 µM"
- Compound: "CN(C)CCCC1(c2ccc(F)cc2)OCc2cc(-c3cncc4ccccc34)ccc21 (stereo not drawn)"
  Target under test: "A549 NSCLC"
  Result type: "TGI"
  Observed value: "16.2 µM"
- Compound: "Cn1cnc([N+](=O)[O-])c1Sc1nc(N)nc2nc[nH]c12"
  Target under test: "A549 NSCLC"
  Result type: "TGI"
  Observed value: "> 100 µM"
- Compound: "O=c1c2c(nc3n1CCC3)sc1c(O)c(Br)ccc12"
  Target under test: "A549 NSCLC"
  Result type: "TGI"
  Observed value: "29.9 µM"
- Compound: "O=[N+]([O-])c1ccc(NS(=O)(=O)C(F)(F)F)cc1"
  Target under test: "A549 NSCLC"
  Result type: "TGI"
  Observed value: "> 100 µM"
- Compound: "CC(C)(C)[Si](C)(C)OCC1OC(n2cnc3c(N)ncnc32)C(O)C1O (stereo not drawn)"
  Target under test: "A549 NSCLC"
  Result type: "TGI"
  Observed value: "> 100 µM"
- Compound: "COc1ccc2[nH]c3c(=O)[nH]ncc3c2c1"
  Target under test: "A549 NSCLC"
  Result type: "TGI"
  Observed value: "> 100 µM"
- Compound: "CC1(C)OC(COCCOCCCCCO)C(COCCOCCCCCO)O1 (stereo not drawn)"
  Target under test: "A549 NSCLC"
  Result type: "TGI"
  Observed value: "> 100 µM"
- Compound: "CC1=C2C(=O)c3ccccc3C(=O)[C@H]2C[C@@H](N2CCCCCC2=O)O1"
  Target under test: "A549 NSCLC"
  Result type: "TGI"
  Observed value: "39.7 µM"
- Compound: "COc1ccc2[nH]c(-c3ccccc3)cc2c1"
  Target under test: "A549 NSCLC"
  Result type: "TGI"
  Observed value: "> 100 µM"
- Compound: "Cc1n(Cc2ccc3ccccc3c2)c(Cl)c(Cl)[n+]1Cc1ccc2ccccc2c1"
  Target under test: "A549 NSCLC"
  Result type: "TGI"
  Observed value: "22 µM"
- Compound: "NC(=O)c1cc(I)ccc1NC(=O)COc1ccccc1"
  Target under test: "A549 NSCLC"
  Result type: "TGI"
  Observed value: "> 100 µM"
- Compound: "Cn1cc(CO)c2ccccc21"
  Target under test: "A549 NSCLC"
  Result type: "TGI"
  Observed value: "> 100 µM"
- Compound: "Nc1ccn([C@@H]2C(F)=C(CO)[C@@H](O)[C@H]2O)c(=O)n1"
  Target under test: "A549 NSCLC"
  Result type: "TGI"
  Observed value: "> 100 µM"
- Compound: "O=C(c1ccco1)C1CC(c2ccc3ccccc3c2O)=NN1c1ccc([N+](=O)[O-])cc1[N+](=O)[O-] (stereo not drawn)"
  Target under test: "A549 NSCLC"
  Result type: "TGI"
  Observed value: "> 100 µM"
- Compound: "Fc1c[c-]c(-c2ccccn2)c(F)c1.[CH3-].[Pt+2].c1ccc(P(C[PH+](c2ccccc2)c2ccccc2)c2ccccc2)cc1"
  Target under test: "A549 NSCLC"
  Result type: "TGI"
  Observed value: "4.7 µM"
- Compound: "C/C(=N\\n1c(N)c(C#N)c(-c2ccc(Cl)cc2)c(C#N)c1=O)c1ccncc1"
  Target under test: "A549 NSCLC"
  Result type: "TGI"
  Observed value: "65.4 µM"
- Compound: "CC(=O)OCCC(O[Si](c1ccccc1)(c1ccccc1)C(C)(C)C)C(C)(C)O (stereo not drawn)"
  Target under test: "A549 NSCLC"
  Result type: "TGI"
  Observed value: "> 100 µM"
- Compound: "NC(=O)C(=O)n1ncc(Cl)c(Cl)c1=O"
  Target under test: "A549 NSCLC"
  Result type: "TGI"
  Observed value: "> 100 µM"
- Compound: "C/C(=N/NC(=O)CC(=O)N(C(=O)c1ccccc1Cl)c1ccc(C)cc1)c1cc2ccccc2oc1=O"
  Target under test: "A549 NSCLC"
  Result type: "TGI"
  Observed value: "> 100 µM"
- Compound: "O=C(Cc1ccc(/C=C/C(=O)c2ncc[nH]2)cc1)Nc1ccc(C(F)(F)F)cc1"
  Target under test: "A549 NSCLC"
  Result type: "TGI"
  Observed value: "27.1 µM"
- Compound: "NC(N)=N/N=C/c1c(-c2ccc(Cl)c([N+](=O)[O-])c2)nc2n1CCS2"
  Target under test: "A549 NSCLC"
  Result type: "TGI"
  Observed value: "77.9 µM"
- Compound: "O=C(O)C1C(C(=O)O)C2(Cl)C(Cl)=C(Cl)C1(Cl)C2(Cl)Cl.[Cd] (stereo not drawn)"
  Target under test: "A549 NSCLC"
  Result type: "TGI"
  Observed value: "39 µM"
- Compound: "COc1ccc(C2NCCc3c2[nH]c2ccccc32)cc1 (stereo not drawn)"
  Target under test: "A549 NSCLC"
  Result type: "TGI"
  Observed value: "> 100 µM"
- Compound: "O=C(O)Cn1ccnc1[N+](=O)[O-]"
  Target under test: "A549 NSCLC"
  Result type: "TGI"
  Observed value: "> 100 µM"
- Compound: "CCOc1ccc(-c2oc(/C=N/NS(=O)(=O)c3ccc(C)cc3)c([N+](=O)[O-])c2-c2ccc(OCC)cc2)cc1"
  Target under test: "A549 NSCLC"
  Result type: "TGI"
  Observed value: "65.6 µM"
- Compound: "O=P(O)(O)CN1CCNCCN(CP(=O)(O)O)CCNCC1"
  Target under test: "A549 NSCLC"
  Result type: "TGI"
  Observed value: "> 100 µM"
